B1: Hairpin Ribozyme (parent)
chain: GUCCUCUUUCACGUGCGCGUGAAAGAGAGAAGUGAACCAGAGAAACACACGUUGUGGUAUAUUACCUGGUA

Variants of: B1
assay_protocol: self-cleavage, relative activity (ratio to wild type); higher = more cleavage; co-transcriptional
readout_name: self-cleavage

variant_identifier | readout_name | result
G13C U67C | self-cleavage | 0.126
C16U G25C | self-cleavage | 0.63
A36G G42A | self-cleavage | 0.23
U2G U52C | self-cleavage | 0.346
G34A C65A | self-cleavage | 1.26
U9A A44U | self-cleavage | 0.109
A23G G42C | self-cleavage | 0.33
U8A G42A | self-cleavage | 0.129
U14C A45C | self-cleavage | 0.206
C4A G17A | self-cleavage | 0.174
U7A G13C | self-cleavage | 0.778
A26C A28C | self-cleavage | 0.329
C18U G25U | self-cleavage | 0.69
U58C A64C | self-cleavage | 0.178
C6G U62A | self-cleavage | 0.0667
U20G A39G | self-cleavage | 0.27
A30G G68A | self-cleavage | 0.0362
A44G C66A | self-cleavage | 0.022
U2C U52A | self-cleavage | 0.287
C4G C18G | self-cleavage | 0.0835
A11G C50U | self-cleavage | 0.321
U9G A26U | self-cleavage | 0.477
